These data points were gathered from PubChem BioAssay (NCI).

Measurement Protocol: NCI Yeast Anticancer Drug Screen. Data for the mlh1 rad18 strain (AID 175)
Study Conditions: S. cerevisiae mlh1 rad18 strain growth inhibition; at 50.0 µM; active compounds read high
The panel holds about 79,000 compounds, 15% with a hit somewhere; the sample as a whole holds those more often.
This listing pairs molecules with measured growth inhibition.
# number only, unit % dropped from output

// worked examples, growth inhibition included
Molecule	Unit Tag	growth inhibition
COc1ccc(OC)c(/C=C/c2ccc(NC(=O)C(Cl)(Cl)Cl)cc2)c1	%	10.2
O=[N+]([O-])c1cccc(C=NC23CC4CC(CC(C4)C2)C3)c1	%	-4.15

Briefly, growth inhibition measured for NC(=O)N/N=C/C(Cc1ccccc1)=N/OCc1ccccc1 : -1.75

// recorded growth inhibition for O=C1OC(C(O)C(O)C(O)CO)C(O)C1O (stereo not drawn) : 4.65

Entry O=[N+]([O-])c1cccc(/C=C/COc2ccccc2)c1 , growth inhibition reported as -18.9

Data point: CCCCCCC1(/C=C/c2ccc(Cl)c(Cl)c2)OCCCO1 ; growth inhibition = 8.1

Documented growth inhibition of CCCCCCCCC1=C(CCCCCCC(=O)OC)[14CH2]1 : 24.5

Recorded result, Brc1ccc(C=C2c3ccccc3-c3ccccc32)cc1 , growth inhibition: 1.95

Form field growth inhibition, entry O=C(CN1CCN(Cc2ccccc2)CC1)N1CCCn2c1nc1ccccc1c2=O : -3.85

CCN(CC)C(=O)c1ccccc1 has a reported growth inhibition of 10.3

# molecule O=c1[nH]c2cc(Cl)ccc2nc1/C=C(\O)c1ccccc1O ; its growth inhibition = -0.8

What the record says about COc1cc(N2C(=O)CSC2=S)cc(OC)c1OC : growth inhibition is 23.4

// field: growth inhibition; key: CCCCCCCCCCCC(=O)OC(C)CO (stereo not drawn) ; value = 17.1
